Kindly supply the reported MIC values for the records listed here.
Test system: Pseudomonas aeruginosa
Experiment: MIC by agar dilution against 61 strains of Pseudomonas aeruginosa, secondary evaluation
Assay type: cell-based
Conditions: Pseudomonas aeruginosa, BBRI Pa-No. 17, H6 D114, Table 7; read-out: MIC
Method: Minimum inhibitory concentrations (MIC) of BB-S520 were determined by serial two-fold agar dilution method using Steers' apparatus on Meuller-Hinton agar plate against 31 test organisms for the primary screening and also against 61 strains of Pseudomonas aeruginosa for the secondary evaluation. The results are shown in Table 1 and Table 2 along with those of BB-S514 and sulbenicillin. […]
Numbers only, in µg/mL.

compound: NC(=O)OCC1=C(C(=O)O)N2C(=O)C(NC(=O)[C@H](NC(=O)c3cnc4cccnc4c3O)c3ccc(O)cc3)C2SC1 (single isomer, unassigned)
MIC (µg/mL): 12.5
--
compound: CC1(C)S[C@@H]2[C@H](NC(=O)C(c3ccccc3)S(=O)(=O)O)C(=O)N2[C@H]1C(=O)O (stereo partly shown)
MIC (µg/mL): 25
--
compound: NC(=O)OCC1=C(C(=O)O)N2C(=O)C(NC(=O)[C@H](NC(=O)c3cnc4cccnc4c3O)c3ccccc3)[C@H]2SC1 (stereo partly shown)
MIC (µg/mL): 3.1

# input for lookup
input: Specify reported MIC for the compound shown: CCN1CCN(C(=O)NC(C(=O)N[C@@H]2C(=O)N3[C@@H]2SC(C)(C)[C@@H]3C(=O)O)c2ccccc2)C(=O)C1=O (stereo partly shown)
output: 25
